Documented Log P (n-octanol/water) across a set of compounds
# TEST NAME: Log P (n-octanol/water) of perfuming compounds (Tables 4 to 10)
# RECORDED CONDITIONS: Table 6, perfuming compounds having a fruity note
Just the number, please, no unit attached.

CC(O)c1ccccc1 (centres unmarked) [1-PHENYL-1-ETHANOL] | 1.42
CCC(C)C(=O)OCCc1ccccc1 (racemic) [(+−)-2-PHENYLETHYL 2-METHYLBUTANOATE] | 3.64
CCCC(C)C(=O)OCC (racemic) [(+−)-ETHYL 2-METHYLPENTANOATE] | 3.05
CCCC(C)COC(=O)C(C)CCC (centres unmarked) [2-METHYLPENTYL 2-METHYLPENTANOATE] | 5.13

Turning now to a further compound:
Query: Any idea what its Log P (n-octanol/water) is? The compound is CC(OC=O)C1CCCC(C)(C)C1 (centres unmarked)
Result: 4.01
